Recorded apparent KD of MS2 coat protein values for a group of sequences are listed next.
Tested on: MS2 coat protein
Assay details: apparent KD of MS2 coat protein; designed switch direction (-1 OFF switch, 1 ON switch): -1; higher = weaker reporter binding
Condition description: input ligand: microRNA oligo, concentration not stated
Respond with the bare value in µM.

Use these answered entries as a reference point.
[[record]]
sequence_input = "UUGAUGUCAUCAGGAUAUAGUAUUUAAGACAUAUCUUCUUUCAAACAUGAGGAUCACCCAUGUCGCUAGAAGGGAUGAAUGAUU [JR_ExcNG2_Sub085] (Eterna round: R96, puzzle: Exclusion NG 2)"
system_tested = "MS2 coat protein"
measurement = 0.0121

[[record]]
sequence_input = "UGAUCAGACCGAGGAUAUACAUGUAGGACGCACGUGAGUGCGUCCAGUACAUGAGGAUCACCCAUGUAGAAGGCGGUCUGAUCU [JL ENG2 1.95] (Eterna round: R96, puzzle: Exclusion NG 2)"
system_tested = "MS2 coat protein"
measurement = 0.0782

[[record]]
sequence_input = "AGUCGAAAGACAAAAACAGACAUGAGGAUCACCCAUGUAAAGGGUGAACAAGCCACCCGCUCGUCUUAAAAAAAAAA [Mat - Sensor v2 - JL mod - D25] (Eterna round: R96, puzzle: Sensor v2, turn-off variant)"
system_tested = "MS2 coat protein"
measurement = 0.0692

[[record]]
sequence_input = "ACGGUGGUCCGAGAACAUGAGGAUCACCCAUGUGACAAAACCAAGGAUAUAGAAGGACCGCCCGACUAGAAGGUGGAAAGAAAA [Aresonen] (Eterna round: R96, puzzle: Exclusion NG 3)"
system_tested = "MS2 coat protein"
measurement = 0.0733

[[record]]
sequence_input = "UUAGGCUGAAGAUCAAUUAAUUAACAUGAGGAUCACCCAUGUAAGGAUAUCAGCUCGUUUAGAGCUGAGAAGGUACAUGCAGCC [ExNG3/18-A2] (Eterna round: R96, puzzle: Exclusion NG 3)"
system_tested = "MS2 coat protein"
measurement = 0.121


Under MS2 coat protein: apparent KD of MS2 coat protein value of UUAAAUCAUGUAGGAUAUGCUUUGCAAAGCGAAGCAGAAGGACAUGAGGAUCACCCAUGUGCUAGCGUCCGAGAACGGAUGCAA [Mat - Exclusion NG 1 - Mod of JL - D65] (Eterna round: R96, puzzle: Exclusion NG 1) ?
0.0606

Under MS2 coat protein: apparent KD of MS2 coat protein value of AGUACUAACACGAUAGUGUUAGUACAAUAAGCUUGUGAAACAUGAGGAUCACCCAUGUCCUCAUAAGCUCGUCUUAU [salish99_TOv2_r3_030] (Eterna round: R96, puzzle: Sensor v3, turn-off variant 2) ?
0.507

Under MS2 coat protein: apparent KD of MS2 coat protein value of GCGGGCUUGGGAGGAUAUACAUGAGGAUCACCCAUGUGUGUUCGGGCUGGCCGGUUUGGGCGCGUGUAGAAGGCUCGGGUUUGC [less GC, A 14%] (Eterna round: R96, puzzle: Exclusion NG 2) ?
0.0134

Under MS2 coat protein: apparent KD of MS2 coat protein value of AAUAAUCAUGUAGGAUAUGCGUGGCAAAGCUAUGCAGAAGGACAUGAGGAUCACCCAUGUUCUAGCGUCUGCGUACAGAUGCUA [Mat - Exclusion NG 1 - Mod of JL - D80] (Eterna round: R96, puzzle: Exclusion NG 1) ?
0.0291
